Where these numbers come from: PubChem BioAssay (NCATS)

- experiment_summary: Quantitative High-Throughput drug screen in 47 multiple myeloma cell lines against the NCATS MIPE library collection: KMS26_JCRB cell viability assay (AID 1918975); further: nearly all actives have a fitted effect of over 45% in size
- run_conditions: KMS26 myeloma cells viability, CellTiter-Glo ATP, 48 h; series mostly up to 45.8 µM
Inconclusive results are not listed. The source made the active and inactive calls. The call rests on the fitted dose curve; in most records, active means well fitted cell-killing curve with a large enough effect; inconclusive means small, poorly fitted or top-dose-only effect, or effect the other way; inactive means no such curve, though single readings can be large or run the other way.
Please answer using one outcome listed in active, inactive

Field: outcome | Entry: O=C(O)CCCCCC(=O)NN=C1CCCC1
inactive

Please do the same for COc1cccc2c1C(=O)c1c(O)c3c(c(O)c1C2=O)C[C@@](O)(C(=O)CO)C[C@@H]3O[C@H]1C[C@H](N)[C@@H](O)[C@H](C)O1 as well.
active

Please do the same for C[C@@H](Cc1cc2c(c(C(N)=O)c1)N(CCCO)CC2)NCCOc1ccccc1OCC(F)(F)F as well.
inactive

Please do the same for C=CC[C@@H]1C=C(C)C[C@H](C)C[C@H](OC)[C@H]2O[C@@](O)(C(=O)C(=O)N3CCCC[C@H]3C(=O)O[C@H](C(C)=C[C@@H]3CC[C@H](O)[C@H](OC)C3)[C@@H](C)[C@@H](O)CC1=O)[C@@H](C)C[C@@H]2OC as well.
active

Please do the same for C#C[C@]1(O)CC[C@@H]2[C@@H]3CCC4=CC(=O)CC[C@@H]4[C@H]3CC[C@@]21CC as well.
inactive

Please do the same for CCc1c(O)cc(O)c(C(=O)c2ccc(OCCN3CCOCC3)c(OC)c2)c1CC(=O)N(CCOC)CCOC as well.
active

Please do the same for CCc1cnn2c(NCc3ccc[n+]([O-])c3)cc(N3CCCC[C@@H]3CCO)nc12 as well.
active

Please do the same for COc1cc2c(cc1OC)[C@@H]1C(=O)c3ccc4c(c3O[C@@H]1CO2)C=CC(C)(C)O4 as well.
active

Please do the same for O=[N+]([O-])c1cn2c(n1)OC[C@@H](OCc1ccc(OC(F)(F)F)cc1)C2 as well.
inactive

Please do the same for COC1=C(OC)C(=O)C(CC=C(C)CCC=C(C)CCC=C(C)CCC=C(C)CCC=C(C)CCC=C(C)CCC=C(C)CCC=C(C)CCC=C(C)CCC=C(C)C)=C(C)C1=O as well.
inactive

Please do the same for CC(C)C[C@H](NC(=O)CNC(=O)c1cc(Cl)ccc1Cl)B1OC(=O)CC(CC(=O)O)(C(=O)O)O1 (stereo partly specified) as well.
active

Please do the same for C[C@@H]1C(=O)O[C@H]2CC34[C@H]5C[C@@H](C(C)(C)C)C36[C@H](OC(=O)[C@@H]6O)O[C@@]4(C(=O)O5)[C@]21O (stereo partly specified) as well.
inactive

Please do the same for C#CCC(Cc1cnc2nc(N)nc(N)c2n1)c1ccc(C(=O)N[C@@H](CCC(=O)O)C(=O)O)cc1 (stereo partly specified) as well.
active

Please do the same for CCn1c(=O)c2c(nc(C=Cc3ccc(OC)c(OC)c3)n2C)n(CC)c1=O as well.
inactive

Please do the same for COc1cc([C@@H]2c3cc4c(cc3[C@H](O)[C@H]3COC(=O)[C@@H]23)OCO4)cc(OC)c1OC as well.
active

Please do the same for c1cc(CN2CCCNCCNCCCNCC2)ccc1CN1CCCNCCNCCCNCC1 as well.
inactive

---

- experiment_summary: qHTS Screen of the MIPE 4.0 Collection Against Ewings Sarcoma (TC32) (AID 1259256); further: nearly all actives have a fitted effect of over 45% in size; further: potency means the concentration at half of the fitted maximal effect
- run_conditions: TC32 Ewing sarcoma viability, CellTiter-Glo, 48 h; series mostly up to 45.8 µM
Results filed as inconclusive are left out. Activity calls are given as the source filed them. Calls follow the shape of the dose curve; as a rule, active = well fitted inhibition curve with a large enough effect; inconclusive = small, poorly fitted or top-dose-only effect; inactive = no such curve, though single readings can be large or run the other way.
measured_property: Potency

compound	reported
Cc1ccccc1C(=O)Nc1ccc(C(=O)N2CCCC(O)c3cc(Cl)ccc32)c(C)c1 (stereo not drawn)	inactive
C=CC1=C(C(=O)O)N2C(=O)[C@@H](NC(=O)C(=NO)c3csc(N)n3)[C@H]2SC1	inactive
O=C1CSC(=O)N1C(CCc1ccncc1)COc1ccc(-c2cccc([N+](=O)[O-])c2)cc1 (stereo not drawn)	6.62 µM (active)
CN(N=O)C(=O)N[C@H]1C(O)OC(CO)[C@@H](O)[C@H]1O (stereo partly drawn)	inactive

// lookup Potency for Cn1cc(-c2cnn3c(N)c(Br)c([C@H]4CCCNC4)nc23)cn1
0.187 µM (active)

Please do the same for NC(=O)c1cccc(-c2cccc(OC(=O)NC3CCCCC3)c2)c1 as well.
inactive

---

- experiment_summary: qHTS of pediatric cancer cell lines to identify multiple opportunities for drug repurposing: Primary screen for SK-N-MC cells (AID 1347093); further: potency means the concentration at half of the fitted maximal effect
- run_conditions: SK-N-MC viability, CellTiter-Glo luminescence, 48 h; series mostly up to 46 µM
- Description: Drug repurposing or repositioning has been offered as a strategy for drug development in oncology programs. […] [1] Shen, M et al. Quantitative high-throughput phenotypic screening of pediatric cancer cell lines identifies multiple opportunities for drug repurposing. […] Cells were assayed in growth media at a density of 500-1,000 cells/well. […] After a 15 min incubation at room temperature, samples were analyzed for luminescence intensity using a ViewLux High-throughput CCD imager equipped with clear filters.
Inconclusive results are not listed. The source made the active and inactive calls. Calls follow the shape of the dose curve; as a rule, active = well fitted cell-killing curve with a large enough effect; inconclusive = small, poorly fitted or top-dose-only effect; inactive = no such curve, though single readings can be large or run the other way. Non-standard residues stand in square brackets, D forms with d. Residues, ends and D or L forms follow the SMILES beside them. *: point of attachment. Nva = CCC[C@H](N)C(=O)O; Cbz = O=C(OCc1ccccc1)*
measured_property: Potency

compound	Potency
CCOC(=O)[C@@H](N)Cc1ccc(-c2cc(O[C@H](c3ccc(Cl)cc3-n3ccc(C)n3)C(F)(F)F)nc(N)n2)cc1	16.6 µM (active)
C[C@H](CCC(=O)O)[C@H]1CC[C@H]2[C@@H]3[C@H](O)C[C@@H]4C[C@H](O)CC[C@]4(C)[C@@H]3CC[C@]12C	inactive
COc1ccnc2[nH]cc(C(=O)C(=O)N3CCN(C(=O)c4ccccc4)C[C@@H]3C)c12	inactive
COc1ccc([C@@H]2CNC(=O)C2)cc1OC1CCCC1	0.469 µM (active)
C[C@H](NCc1ccc(OCc2cccc(F)c2)cc1)C(N)=O	2.64 µM (active)

// lookup Potency for C=C1C[C@@]2(O)O[C@@]3(C[C@H]2C(C)C)[C@H](C)CC[C@H]13
inactive

Please do the same for CCC[C@@H](C=O)NC(=O)[C@H](CC(C)C)NC(=O)[C@H](CC(C)C)NC(=O)OCc1ccccc1 (Cbz-Leu-Leu-[Nva]-aldehyde) as well.
0.105 µM (active)

Please do the same for O=C(c1ccc(F)cc1)N1CCC[C@H](c2nc(-c3ccc(F)cc3)no2)C1 as well.
inactive

---

- experiment_summary: Quantitative High-Throughput drug screen in 47 multiple myeloma cell lines against the NCATS MIPE library collection: KMS12PE_JCRB cell viability assay (AID 1918972); further: nearly all actives have a fitted effect of over 30% in size;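 on viability: 100% = DMSO only wells and 0% = wells with media alone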
- run_conditions: KMS12PE myeloma viability, CellTiter-Glo ATP, 48 h; series mostly up to 45.8 µM
Inconclusive results are not listed. The source made the active and inactive calls. The call rests on the fitted dose curve; in most records, active means well fitted cell-killing curve with a large enough effect; inconclusive means small, poorly fitted or top-dose-only effect, or effect the other way; inactive means no such curve, though single readings can be large or run the other way.
Please answer using one outcome listed in active, inactive

Field: outcome | Entry: C[C@H](NC(=O)[C@@H](O)c1cc(F)cc(F)c1)C(=O)N[C@@H]1C(=O)N(C)c2ccccc2-c2ccccc21
inactive

Please do the same for CCCCCCCCCCCCCCCC(=O)OC[C@@H](NC(=O)C(Cl)Cl)[C@H](O)c1ccc([N+](=O)[O-])cc1 as well.
inactive

Please do the same for Cc1[nH]c(C=C2C(=O)Nc3ccccc32)c(C)c1CCC(=O)O as well.
active

Please do the same for COc1cccc2c1C(=O)c1c(O)c3c(c(O)c1C2=O)C[C@@](O)(C(C)=O)C[C@H]3O[C@H]1C[C@H](N)[C@H](O)[C@H](C)O1 as well.
active

Please do the same for Nc1ncn([C@@H]2O[C@H](CO)[C@@H](O)[C@@H]2O)c(=O)n1 as well.
active

Please do the same for OCC(O)C(O)C(O)CO (stereo not drawn) as well.
inactive

Please do the same for COc1ccc(CCC(=O)c2c(O)cc(O[C@@H]3O[C@H](CO)[C@@H](O)[C@H](O)[C@@H]3O[C@@H]3O[C@@H](C)[C@H](O)[C@@H](O)[C@@H]3O)cc2O)cc1O as well.
inactive

Please do the same for COC[C@H](NC(=O)c1cnc(C)s1)C(=O)N[C@@H](COC)C(=O)N[C@@H](Cc1ccccc1)C(=O)[C@@]1(C)CO1 as well.
active

---

- experiment_summary: qHTS for identification of novel therapeutic agents for treatment of microphthalmiaassociated transcription factor (MiT) renal cell carcinoma (RCC) (AID 1963991);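 further: curves scaled with 100% = DMSO viability and 0% = empty wells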
- run_conditions: TFE3-RCC viability, CellTiter-Glo, 48 h; measured here: UOK124 Z-AUC; stronger effect = lower value
Records with an inconclusive call do not appear.
Give z-score for every item shown.
Number only, no unit.

// lookup z-score for CCCCCCCCCCCCc1ccc(S(=O)(=O)Nc2nncs2)cc1
2.17

Please do the same for COC1=C(OC)C(=O)C(CC=C(C)CCC=C(C)CCC=C(C)CCC=C(C)CCC=C(C)CCC=C(C)CCC=C(C)CCC=C(C)CCC=C(C)CCC=C(C)C)=C(C)C1=O as well.
0.211

Please do the same for CCCNS(=O)(=O)Nc1ncnc(OCCOc2ncc(Br)cn2)c1-c1ccc(Br)cc1 as well.
1.04

Please do the same for COc1cc(C)c(C=CC(C)=CC=CC(C)=CC(=O)O)c(C)c1C as well.
0.342

Please do the same for Cc1cc(O)c2c(c1)C(=O)c1cccc(O)c1C2=O as well.
0.712
